Taken from paper PMC6713100.

recorded metric: melting point

                                   compound  readout_value
0  COc1cc(N(CCCBr)S(=O)(=O)c2cccc3cccnc23)cc(OC)c1OC [Compound 12]  129 to 131 °C
1  COc1cc(N(CCCSC(=S)N2CCN(CCO)CC2)S(=O)(=O)c2cccc3cccnc23)cc(OC)c1OC [Compound 13c]  106 to 108 °C
2  COc1cc(N(CCCSC(=S)N2CCN(C)CC2)S(=O)(=O)c2cccc3cccnc23)cc(OC)c1OC [Compound 13a]    96 to 98 °C
3  COc1cc(NS(=O)(=O)c2cccc3cccnc23)cc(OC)c1OC [Compound 11]  181 to 183 °C
4  COc1cc(N(CCCSC(=S)N2CCN(C(C)=O)CC2)S(=O)(=O)c2cccc3cccnc23)cc(OC)c1OC [Compound 13d]  128 to 129 °C
5  CCN1CCN(C(=S)SCCCN(c2cc(OC)c(OC)c(OC)c2)S(=O)(=O)c2cccc3cccnc23)CC1 [Compound 13b]  131 to 133 °C
